For each of the compounds below, state its TGI.
# Tested on: UO-31 renal
# ASSAY_NOTES: NCI tumour cell line growth inhibition, 48 h

May I ask what TGI has been recorded for COc1cc(/C=C/c2ccc(OC)c(OC)c2)oc(=O)c1 ?
> 250 µM

Provide each entry's TGI from the list below.
1. CCCC(=O)Oc1ccc(/C(=C(\C)c2ccc(Cl)cc2)c2ccc(OCCN(CC)CC)cc2)cc1
2. CC(=O)OCC1OC(n2c(C)c(C)cc(C#N)c2=S)C(OC(C)=O)C(OC(C)=O)C1OC(C)=O (stereo not given)

3.11 µM
> 100 µM

Provide each entry's TGI from the list below.
1. O=C(O)/C=C/c1c2ccc(=O)c(O)c-2oc2c(O)c(O)ccc12
2. C=C1C(=O)OC2CC1C(OC(=O)/C=C/c1ccccc1)C/C(C)=C/CC/C(C)=C/CCC2(C)O (stereo not given)
3. CC(=O)OC1(Sc2ccccc2)CC2[C@H]3COC(C)(C)O[C@H]3CC[C@@]2(C)CC1=O (stereo not given in full)
4. O=S(=O)(F)Cc1ccccc1
5. CN(C)CCCNc1ccnc2c([N+](=O)[O-])cccc12

1. > 100 µM
2. 3 µM
3. > 100 µM
4. > 100 µM
5. > 100 µM

Provide each entry's TGI from the list below.
1. O=C(N/N=C\c1ccc(Cl)cc1)Nc1ccc2ccccc2c1
2. COP(=O)(OC)C(N)Cc1c[nH]c2ccccc12 (stereo not given)

> 100 µM
> 100 µM

* * *

For each of the compounds below, state its TGI.
# System: SN12C renal
# ASSAY_NOTES: NCI tumour cell line growth inhibition, 48 h

May I ask what TGI has been recorded for Cc1ccc(C(=O)Nc2ccc(S(=O)(=O)O)c3cc(S(=O)(=O)O)cc(S(=O)(=O)O)c23)cc1NC(=O)c1cccc(NC(=O)Nc2cccc(C(=O)Nc3cc(C(=O)Nc4ccc(S(=O)(=O)O)c5cc(S(=O)(=O)O)cc(S(=O)(=O)O)c45)ccc3C)c2)c1 ?
> 100 µM

Field entry: CC(C)(C)OC(=O)NCCCCCCCCCn1c2c(c3ccccc3c1=O)C(=O)c1ccccc1-2
> 100 µM

Field entry: CN(c1cccc(C(=O)O)c1)c1cc(O/N=[N+](\[O-])N(C)C)c([N+](=O)[O-])cc1[N+](=O)[O-]
> 100 µM

Field entry: CN(C)CCNC(=O)c1ccc2c(c1)oc1cc3ccccc3c(=O)n12
30.6 µM

Field entry: CCCC(=O)Oc1ccc(/C(=C(\C)c2ccc(Cl)cc2)c2ccc(OCCN(CC)CC)cc2)cc1
18.1 µM

Field entry: O=C(NCCCN1CCN(CCCNC(=O)c2cccc3ccccc23)CC1)c1cccc2ccccc12
> 100 µM

Field entry: Cc1cccc2c(=O)c3cccc([C@H](C)C(=O)O)c3oc12
> 100 µM

Switching to the query record.
May I ask what TGI has been recorded for CCOC(=O)c1ccc(N=Cc2ccc(N(CCC#N)S(=O)(=O)c3ccccc3)cc2C)cc1 ?
> 100 µM

* * *

# Test system: RPMI-8226 leukemia
# ASSAY_NOTES: NCI tumour cell line growth inhibition, 48 h
READOUT_NAME: GI50

May I ask what GI50 has been recorded for CCN(Cc1ccc(Cl)c(Cl)c1)c1ccc2nc(N)nc(N)c2c1C ?
0.0968 µM

Field entry: COc1ccc(/C=C\c2cc(OC)c(OC)c(OC)c2)cc1NC(=O)/C=C/c1ccc(OC)c(OC)c1
3.95 µM

Field entry: O=C1c2c(c3c4cc(F)ccc4oc3c3[nH]c4ccccc4c23)C(=O)N1O
1.22 µM

Field entry: COc1ccc(Cn2cc3c(c2-c2ccccc2)CCc2cnoc2-3)cc1
0.167 µM

Provide each entry's GI50 from the list below.
1. COc1cc(C[C@H]2COC(=O)[C@]2(O)Cc2ccc(OCc3ccccc3)c(OC)c2)ccc1OCc1ccccc1
2. COc1ccc(CCN2CCCn3c2nc2ccccc2c3=O)cc1
3. CNc1c2ccccc2nc2occ(Cl)c12
4. COc1ccc(-n2cc(-c3cc(OC)c(OC)c(OC)c3)nc2SCc2cccc(C#N)c2)cc1OC
5. O=[N+]([O-])c1ccccc1/C=N\NC(=S)N/N=C/c1ccccc1[N+](=O)[O-]
6. Nc1[nH]nc(Nc2ccccc2)c1-c1nc2ccccc2s1

71.9 µM
0.353 µM
16 µM
> 100 µM
5.91 µM
2.24 µM

May I ask what GI50 has been recorded for N.N.N.N.N#N.N#N.[Cl-].[Os+6] ?
> 100 µM
